- System: NCI-H196 complex spheroid growth, percent test/control
- PROTOCOL_TEXT: Anticancer human tumor NCI-H196 cell line growth inhibition [AhR]; active = viability on the fitted dose curve at most 10% of control; inactive = the rest
- CONDITION_SUMMARY: second compound 10 µM; first compound 10 µM
The reply should be one of these categories: active, inactive

Recorded results for 8 compounds are shown here.
COc1cc(Nc2ncc3c(n2)-c2ccc(Cl)cc2C(c2c(F)cccc2OC)=NC3)ccc1C(=O)O + Cc1ccccc1N=Nc1ccc(NC(=O)c2ccnn2C)c(C)c1; inactive
COc1ccc([C@@H](O)c2cc(-c3ncnc4cc(N5CCOCC5)ccc34)c(F)cc2Cl)nn1 + CC(CO)NC(=O)c1cc(-c2ccc(Cl)cc2)nn(-c2cnn(C)c2)c1=O; inactive
CC(C)c1c(-c2ccccc2)nc2c(C#N)c[nH]n2c1=O + Cc1cncc(-c2nc(NCCc3c[nH]c4ccccc34)c3ncn(C(C)C)c3n2)c1; inactive
COc1ccc([C@@H](O)c2cc(-c3ncnc4cc(N5CCOCC5)ccc34)c(F)cc2Cl)nn1 + Cc1ccccc1N=Nc1ccc(NC(=O)c2ccnn2C)c(C)c1; inactive
CC(C)c1c(-c2ccccc2)nc2c(C#N)c[nH]n2c1=O + CC(CO)NC(=O)c1cc(-c2ccc(Cl)cc2)nn(-c2cnn(C)c2)c1=O; inactive
Nc1ccccc1NC(=O)c1ccc(CNC(=O)OCc2cccnc2)cc1 + Cc1cncc(-c2nc(NCCc3c[nH]c4ccccc34)c3ncn(C(C)C)c3n2)c1; active
O=C(C=Cc1cccc(S(=O)(=O)Nc2ccccc2)c1)NO + Cc1cncc(-c2nc(NCCc3c[nH]c4ccccc34)c3ncn(C(C)C)c3n2)c1; active
O=C(c1cc(Cc2n[nH]c(=O)c3ccccc23)ccc1F)N1CCN(C(=O)C2CC2)CC1 + Cc1cncc(-c2nc(NCCc3c[nH]c4ccccc34)c3ncn(C(C)C)c3n2)c1; inactive

Asked: For Nc1ccn(C2OC(CO)C(O)C2(F)F)c(=O)n1 (configuration not stated) + Cc1cncc(-c2nc(NCCc3c[nH]c4ccccc34)c3ncn(C(C)C)c3n2)c1 , what call appears in the results of this test?
Given back: inactive

Asked: Answer briefly: the call reported for COc1cc(C2c3cc4c(cc3C(OC3OC5COC(C)OC5C(O)C3O)C3COC(=O)C23)OCO4)cc(OC)c1O (configuration not stated) + Cc1cncc(-c2nc(NCCc3c[nH]c4ccccc34)c3ncn(C(C)C)c3n2)c1 in this assay.
Given back: inactive

Asked: Please share the test call associated with COc1cccc2c1C(=O)c1c(O)c3c(c(O)c1C2=O)CC(O)(C(=O)CO)CC3OC1CC(N)C(O)C(C)O1 (configuration not stated) + Cc1ccccc1N=Nc1ccc(NC(=O)c2ccnn2C)c(C)c1 .
Given back: active

Asked: For CC1COCCN1c1cc(C2(S(C)(=N)=O)CC2)nc(-c2ccnc3[nH]ccc23)n1 (configuration not stated) + Cc1ccccc1N=Nc1ccc(NC(=O)c2ccnn2C)c(C)c1 , what call appears in the results of this test?
Given back: inactive

====

- Test system: NCI-H196 complex spheroid growth, percent test/control
- PROTOCOL_TEXT: Anticancer human tumor NCI-H196 cell line growth inhibition [AhR];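 also: seven days of drug exposure starting three days after plating; 100% = DMSO vehicle control wells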
- CONDITION_SUMMARY: second compound 0.1 µM; first compound 0.1 µM; active compounds read low
Listed compounds paired with reported viability, T/C
Express your answer in %, writing the number without its unit.

CC[C@@]1(O)C(=O)OCc2c1cc1n(c2=O)Cc2cc3c(CN(C)C)c(O)ccc3nc2-1 + Cc1ccccc1N=Nc1ccc(NC(=O)c2ccnn2C)c(C)c1; 102
CC[C@@]1(O)C(=O)OCc2c1cc1n(c2=O)Cc2cc3c(CN(C)C)c(O)ccc3nc2-1 + Cc1cncc(-c2nc(NCCc3c[nH]c4ccccc34)c3ncn(C(C)C)c3n2)c1; 105
COc1cccc2c1C(=O)c1c(O)c3c(c(O)c1C2=O)CC(O)(C(=O)CO)CC3OC1CC(N)C(O)C(C)O1 (stereo unspecified) + CC(CO)NC(=O)c1cc(-c2ccc(Cl)cc2)nn(-c2cnn(C)c2)c1=O; 105
CC1COCCN1c1cc(C2(S(C)(=N)=O)CC2)nc(-c2ccnc3[nH]ccc23)n1 (stereo unspecified) + Cc1cncc(-c2nc(NCCc3c[nH]c4ccccc34)c3ncn(C(C)C)c3n2)c1; 103
COc1ccc([C@@H](O)c2cc(-c3ncnc4cc(N5CCOCC5)ccc34)c(F)cc2Cl)nn1 + CC(CO)NC(=O)c1cc(-c2ccc(Cl)cc2)nn(-c2cnn(C)c2)c1=O; 91.2

Alright, here's another compound for you.
Record Nc1ccn(C2OC(CO)C(O)C2(F)F)c(=O)n1 (stereo unspecified) + Cc1ccccc1N=Nc1ccc(NC(=O)c2ccnn2C)c(C)c1 . Reported viability, T/C: 85.5

====

- Test system: NCI-H196 complex spheroid growth, percent test/control
- PROTOCOL_TEXT: Anticancer human tumor NCI-H196 cell line growth inhibition [AhR];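 also: seven days of drug exposure starting three days after plating; 100% = DMSO vehicle control wells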
- CONDITION_SUMMARY: second compound 0.1 µM; first compound 0.03 µM; active compounds read low
The following compounds are shown together with reported viability, T/C values.
Dear colleague, please return just the value in %, with no unit written.

See these solved cases before continuing.
CCc1c2c(nc3ccc(O)cc13)-c1cc3c(c(=O)n1C2)COC(=O)[C@]3(O)CC + CC(CO)NC(=O)c1cc(-c2ccc(Cl)cc2)nn(-c2cnn(C)c2)c1=O; 105
Nc1ncn(C2CC(O)C(CO)S2)c(=O)n1 (stereo not drawn) + Cc1ccccc1N=Nc1ccc(NC(=O)c2ccnn2C)c(C)c1; 96.8

Attention now shifts to the item below.
Consider CCc1c2c(nc3ccc(O)cc13)-c1cc3c(c(=O)n1C2)COC(=O)[C@]3(O)CC + Cc1ccccc1N=Nc1ccc(NC(=O)c2ccnn2C)c(C)c1 . Its measured viability, T/C is 95.3

====

Documented viability, T/C across a set of compounds
- Test system: NCI-H196 complex spheroid growth, percent test/control
- PROTOCOL_TEXT: Anticancer human tumor NCI-H196 cell line growth inhibition [AhR];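 also: seven days of drug exposure starting three days after plating; 100% = DMSO vehicle control wells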
- CONDITION_SUMMARY: second compound 10 µM; first compound 1 µM; active compounds read low

CC1(C)CCC(CN2CCN(c3ccc(C(=O)NS(=O)(=O)c4ccc(NCC5CCOCC5)c([N+](=O)[O-])c4)c(Oc4cnc5[nH]ccc5c4)c3)CC2)=C(c2ccc(Cl)cc2)C1 + Cc1ccccc1N=Nc1ccc(NC(=O)c2ccnn2C)c(C)c1; 99.8%
NS(=O)(=O)OCC1CC(n2ccc3c(NC4CCc5ccccc54)ncnc32)CC1O (configuration not stated) + Cc1ccccc1N=Nc1ccc(NC(=O)c2ccnn2C)c(C)c1; 55.5%
COc1cc(C2c3cc4c(cc3C(OC3OC5COC(C)OC5C(O)C3O)C3COC(=O)C23)OCO4)cc(OC)c1O (configuration not stated) + Cc1ccccc1N=Nc1ccc(NC(=O)c2ccnn2C)c(C)c1; 93%
CC1COCCN1c1cc(C2(S(C)(=N)=O)CC2)nc(-c2ccnc3[nH]ccc23)n1 (configuration not stated) + Cc1cncc(-c2nc(NCCc3c[nH]c4ccccc34)c3ncn(C(C)C)c3n2)c1; 83.7%
O=C(c1cc(Cc2n[nH]c(=O)c3ccccc23)ccc1F)N1CCN(C(=O)C2CC2)CC1 + Cc1cncc(-c2nc(NCCc3c[nH]c4ccccc34)c3ncn(C(C)C)c3n2)c1; 88.7%
O=C(c1cc(Cc2n[nH]c(=O)c3ccccc23)ccc1F)N1CCN(C(=O)C2CC2)CC1 + CC(CO)NC(=O)c1cc(-c2ccc(Cl)cc2)nn(-c2cnn(C)c2)c1=O; 109%
CC1COCCN1c1cc(C2(S(C)(=N)=O)CC2)nc(-c2ccnc3[nH]ccc23)n1 (configuration not stated) + Cc1ccccc1N=Nc1ccc(NC(=O)c2ccnn2C)c(C)c1; 89.7%
O=C(C=Cc1cccc(S(=O)(=O)Nc2ccccc2)c1)NO + Cc1cncc(-c2nc(NCCc3c[nH]c4ccccc34)c3ncn(C(C)C)c3n2)c1; 64.3%
Nc1ncn(C2CC(O)C(CO)O2)c(=O)n1 (configuration not stated) + Cc1ccccc1N=Nc1ccc(NC(=O)c2ccnn2C)c(C)c1; 83%
Nc1ccccc1NC(=O)c1ccc(CNC(=O)OCc2cccnc2)cc1 + Cc1cncc(-c2nc(NCCc3c[nH]c4ccccc34)c3ncn(C(C)C)c3n2)c1; 38.1%

Field viability, T/C (NCI-H196 complex spheroid growth, percent test/control), entry COc1cc(C2c3cc4c(cc3C(OC3OC5COC(C)OC5C(O)C3O)C3COC(=O)C23)OCO4)cc(OC)c1O (configuration not stated) + Cc1cncc(-c2nc(NCCc3c[nH]c4ccccc34)c3ncn(C(C)C)c3n2)c1 : 84.3%

Sample COc1cc(Nc2ncc3c(n2)-c2ccc(Cl)cc2C(c2c(F)cccc2OC)=NC3)ccc1C(=O)O + CC(CO)NC(=O)c1cc(-c2ccc(Cl)cc2)nn(-c2cnn(C)c2)c1=O , system: NCI-H196 complex spheroid growth, percent test/control. Its viability, T/C is 122%

====

- Test system: NCI-H196 complex spheroid growth, percent test/control
- PROTOCOL_TEXT: Anticancer human tumor NCI-H196 cell line growth inhibition [AhR];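 also: seven days of drug exposure starting three days after plating; 100% = DMSO vehicle control wells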
- CONDITION_SUMMARY: second compound 10 µM; first compound 1 µM; active compounds read low
PROPERTY_LABEL: viability, T/C (%)
Give your result in % as a bare value.

Nc1ncn(C2CC(O)C(CO)O2)c(=O)n1 (centres undefined) + Cc1cncc(-c2nc(NCCc3c[nH]c4ccccc34)c3ncn(C(C)C)c3n2)c1; 86.1

Given item O=C(C=Cc1cccc(S(=O)(=O)Nc2ccccc2)c1)NO + CC(CO)NC(=O)c1cc(-c2ccc(Cl)cc2)nn(-c2cnn(C)c2)c1=O , the value recorded as its viability, T/C is 75.1

# compound O=C(c1cc(Cc2n[nH]c(=O)c3ccccc23)ccc1F)N1CCN(C(=O)C2CC2)CC1 + Cc1ccccc1N=Nc1ccc(NC(=O)c2ccnn2C)c(C)c1 ; its viability, T/C = 98.8

Sure, the documented viability, T/C for CC(C)c1c(-c2ccccc2)nc2c(C#N)c[nH]n2c1=O + Cc1ccccc1N=Nc1ccc(NC(=O)c2ccnn2C)c(C)c1 is 95.7
